PROTOCOL_NOTES: Solubility of quercetin-3′-O-phosphate in water
Format: physicochemical
MEASUREMENT_CONTEXT: about pH 8 (about 4 g in 50 mL)
REPORTED_METRIC: solubility

INSERT INTO results (compound, observed_value) VALUES
  ('O=c1c(O)c(-c2ccc(O)c(OP(=O)(O)O)c2)oc2cc(O)cc(O)c12 [Quercetin-3′-O-phosphate]', '≥ 80 mg/mL');
